The reader will find reported growth inhibition values listed item by item below.
- assay_info: antimalarial activity against Dd2 strain (AID 2302);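 note: 0% = DMSO untreated growth and 100% = chloroquine plus artemisinin killed control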
- condition_parameters: P. falciparum Dd2 in RBCs, LDH growth readout, 72 h; at 2 µM; hits give high values
Express the result in % but write the number alone.

[
  {
    "molecule": "NC1=NC(Cc2ccccc2)(c2ccncc2)C(=O)N1CCCc1ccccc1 (centres undefined)",
    "measurement_name": "growth inhibition",
    "experimental_value": 1
  },
  {
    "molecule": "CCOC(=O)CC[C@H](NC(=O)c1ccc(NS(=O)(=O)c2ccc(-c3cnc(N)[nH]c3=O)cc2)cc1)C(=O)OCC",
    "measurement_name": "growth inhibition",
    "experimental_value": 2
  }
]

Query block: // lookup growth inhibition for `NC(N)=Nc1nc(-c2cccc(NC(=O)NCC(c3ccccc3)c3ccccc3)c2)cs1`
Result block: 87

Query block: // lookup growth inhibition for Cc1ccc(-c2nnc(Nc3ccc(C(=O)N4CCCCC4)cc3)c3ccccc23)cc1S(=O)(=O)NCC1CCCO1 (centres undefined)
Result block: 99

###

- assay_info: antimalarial activity against Dd2 strain (AID 2302);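 note: 0% = DMSO untreated growth and 100% = chloroquine plus artemisinin killed control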
- condition_parameters: P. falciparum Dd2 in RBCs, LDH growth readout, 72 h; at 2 µM
Active and inactive are the calls of the source.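 How the source made its calls: active means growth inhibition above 50% at the single 2 µM test dose, taken to imply half-maximal potency below 2 µM; inactive means the rest.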
Bench note: report the call from label 1 for active, label 0 for inactive

Past entries and their recorded results:
[
  {
    "molecule": "COc1cccc(NC(=O)NC2CCN(c3ccnc(Nc4cc(OC)c(OC)c(OC)c4)n3)C2)c1 (stereo not given)",
    "category_label": "label 1"
  },
  {
    "molecule": "CCc1c(C)nc(-n2nc(C)cc2NC(=O)c2cccc3ccccc23)[nH]c1=O",
    "category_label": "label 1"
  }
]

For the next question, use this molecule.
Query block: Given `O=S(=O)(Nc1cccc(CCN2CCC(N3CCCCC3)CC2)c1)c1ccc(Oc2ccccc2)cc1` , state the outcome it received in this test.
Result block: label 0

###

- assay_info: human hepatoma cell viability loss – ATP luminescence, cytotoxicity control for P. falciparum antimalarial project, primary screen (AID 2303);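 note: 0% = DMSO wells and 100% = digitonin-killed cells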
- condition_parameters: HepG2 viability, 24-48 h, at 10 µM
Activity calls are given as the source filed them.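 How the source made its calls: active means inhibition above 50%; inactive means the rest.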
Bench note: report the call from active, inactive

Past entries and their recorded results:
[
  {
    "smiles_string": "CC(=O)Nc1ncc(C(=O)Nc2cccc(-c3ccc(-c4nc5c(C)cccc5[nH]4)cc3)c2)s1",
    "category_label": "active"
  },
  {
    "smiles_string": "Cc1cc(NCCC(=O)NCCOc2ccccc2)nc(NCCc2ccc(F)cc2)n1",
    "category_label": "inactive"
  }
]

For the next question, use this compound.
Query block: Given `CCC1(CC)N=C(N)N=C(N)N1OCc1ccc(Cl)c(Cl)c1` , state the outcome it received in this test.
Result block: inactive

###

The reader will find reported growth inhibition values listed item by item below.
- assay_info: inhibition of 3D7 malaria parasite growth – strain 3D7 (AID 2306);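 note: 0% = DMSO wells and 100% = chloroquine plus artemisinin control wells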
- condition_parameters: P. falciparum 3D7 erythrocytic growth, LDH absorbance, 72 h; at 2 µM; hits give high values
Express the result in % but write the number alone.

[
  {
    "compound": "CCOc1c(Br)cc(Br)cc1CNCCCCNc1nc2ccccc2[nH]1",
    "measurement_name": "growth inhibition",
    "experimental_value": 101
  },
  {
    "compound": "Cc1nc2ccccn2c1C1(O)C(=O)Nc2c(Cl)cc(Cl)cc21 (stereo not drawn)",
    "measurement_name": "growth inhibition",
    "experimental_value": 95
  }
]

API: the following record is the query input.
Query block: // lookup growth inhibition for `COc1cc2nc(N3CCC(c4ccccc4)CC3)nc(NCc3ccc(=O)[nH]c3)c2cc1OC`
Result block: 100
